biological target: ZAP-70 (Homo sapiens, UniProt P43403); assay: DELFIA assay (ZAP-70 kinase, phosphorylation of biotinylated poly(glu,tyr)); format: biochemical; details: ZAP-70 DELFIA, class symbols; read-out: Activity (IC50 in vitro)
Sequence (P43403 whole entry): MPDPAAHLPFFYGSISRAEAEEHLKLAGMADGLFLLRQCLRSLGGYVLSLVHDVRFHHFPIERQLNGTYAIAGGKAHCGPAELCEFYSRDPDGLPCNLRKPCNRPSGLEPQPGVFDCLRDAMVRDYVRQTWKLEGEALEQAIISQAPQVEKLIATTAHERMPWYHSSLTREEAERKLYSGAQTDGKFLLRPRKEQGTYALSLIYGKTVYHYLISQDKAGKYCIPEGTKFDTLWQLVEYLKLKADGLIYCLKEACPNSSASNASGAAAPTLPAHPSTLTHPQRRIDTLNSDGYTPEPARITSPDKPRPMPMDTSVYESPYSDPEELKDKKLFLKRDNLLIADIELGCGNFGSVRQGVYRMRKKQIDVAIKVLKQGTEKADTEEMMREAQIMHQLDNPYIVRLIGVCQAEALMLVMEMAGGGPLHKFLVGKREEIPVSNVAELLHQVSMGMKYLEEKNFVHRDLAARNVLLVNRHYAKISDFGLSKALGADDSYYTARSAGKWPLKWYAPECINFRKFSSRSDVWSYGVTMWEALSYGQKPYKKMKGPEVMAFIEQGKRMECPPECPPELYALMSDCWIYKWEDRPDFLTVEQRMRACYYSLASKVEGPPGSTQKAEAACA
pIC50: −log10 of the molar value.
As shown below, each of these compounds has a reported pIC50 value.

The examples below pair each entry with its known result.
| COMPOUND | pIC50 |
| --- | --- |
| N#Cc1ccc(-c2ccc3nc(CCc4ccccc4)cc(C(=O)N4CCC[C@H]4CN4CCCC4)c3c2)cc1 | < 5.00 |
| N#Cc1ccc(-c2ccc3nc(N4CCSC(c5ccccc5)C4)cc(C(=O)N4CCC[C@H]4CN4CCCC4)c3c2)cc1 (some centres unmarked) | < 5.00 |
| O=C(c1cc(NCc2ccc(C(F)(F)F)cc2)nc2ccc(-c3ccc4c(c3)OCO4)cc12)N1CCC[C@H]1CO | < 5.00 |
| O=C(c1cc(NCc2ccc(C(F)(F)F)cc2)nc2ccc(-c3ccc4c(c3)OCO4)cc12)N1CC=C[C@H]1CN1CCCC1 | > 6.00 |
| CS(=O)(=O)c1ccc(-c2ccc3c(C(=O)N4CCC[C@H]4CN4CCCC4)cc(NCc4ccc(C(F)(F)F)cc4)nc3c2)cc1 | 5.00 to 6.00 |
| N#Cc1ccc(-c2ccc3nc(N4CCCC(c5cccc(F)c5)C4)cc(C(=O)N4CCC[C@H]4CN4CCCC4)c3c2)cc1 (some centres unmarked) | < 5.00 |

**Query** Reported pIC50 for O=C(c1cc(CCCCc2ccccc2)nc2ccc(-c3ccc4c(c3)OCO4)cc12)N1CCC[C@H]1CN1CCCC1 : what is it?
**Result** > 6.00

**Query** Same for O=C(c1cc(NCc2ccc(C(F)(F)F)cc2)nc2ccc(-c3ccc4c(c3)OC(F)(F)C(F)(F)O4)cc12)N1CCC[C@H]1CN1CCCC1
**Result** > 6.00

**Query** Another compound: COc1cc(C(=O)N2CCC[C@H]2CN2CCCC2)cc(-c2ccc3c(c2)OCO3)n1
**Result** < 5.00

**Query** Now consider COc1cccc(CCNc2cc(C(=O)N3CCC[C@H]3CN3CCCC3)c3cc(-c4ccc(C#N)cc4)ccc3n2)c1 .
**Result** < 5.00

**Query** Please answer likewise for CN(Cc1ccccc1)c1cc(C(=O)N2CCC[C@H]2CN2CCCC2)c2cc(-c3ccc4c(c3)OCO4)ccc2n1
**Result** > 6.00

**Query** Next entry: N#Cc1ccc(-c2ccc3nc(NCCc4ccccc4F)cc(C(=O)N4CCC[C@H]4CN4CCCC4)c3c2)cc1
**Result** < 5.00

**Query** Moving on to O=C(c1cc(NCc2ccc(C(F)(F)F)cc2)nc2cc(-c3ccc4c(c3)OCO4)ccc12)N1CCC[C@H]1CN1CCCC1
**Result** 5.00 to 6.00

**Query** Next up: CN(c1ccccn1)c1cc(C(=O)N2CCC[C@H]2CN2CCCC2)c2cc(-c3ccc4c(c3)OCO4)ccc2n1
**Result** 5.00 to 6.00

###

target: ZAP-70 (Homo sapiens, UniProt P43403); assay: DELFIA assay (ZAP-70 kinase, phosphorylation of biotinylated poly(glu,tyr)); type: biochemical; details: ZAP-70 DELFIA, class symbols; read-out: Activity (IC50 in vitro)
pIC50: −log10 of the molar value.
In this section we review reported pIC50 values for a set of compounds.

Check out these entries, answers already filled in.
| SMILES | ASSAYED_TARGET | pIC50 |
| --- | --- | --- |
| O=C(c1cc(NCc2ccc(C(F)(F)F)cc2)nc2ccc(CCc3cccc(C(F)(F)F)c3)cc12)N1CCC[C@H]1CN1CCCC1 | ZAP-70 (Homo sapiens, UniProt P43403) | 5.00 to 6.00 |
| O=C(c1cc(CCCCc2ccc(Cl)cc2)nc2ccc(-c3ccc4c(c3)OCO4)cc12)N1CCC[C@H]1CN1CCCC1 | ZAP-70 (Homo sapiens, UniProt P43403) | > 6.00 |
| O=C(c1cc(CCCc2ccccc2)nc2ccc(-c3ccc4c(c3)OCO4)cc12)N1CCC[C@H]1CN1CCCC1 | ZAP-70 (Homo sapiens, UniProt P43403) | > 6.00 |
| O=C(Nc1ccccc1)c1cc(C(=O)N2CCC[C@H]2CN2CCCC2)c2cc(-c3ccc4c(c3)OCO4)ccc2n1 | ZAP-70 (Homo sapiens, UniProt P43403) | 5.00 to 6.00 |
| N#Cc1ccc(-c2ccc3nc(NCc4cc(Cl)ccc4F)cc(C(=O)N4CCC[C@H]4CN4CCCC4)c3c2)cc1 | ZAP-70 (Homo sapiens, UniProt P43403) | < 5.00 |

Shifting focus to the compound that follows.
**Query** Item under review: O=C(c1cc(NCc2cccc(F)c2)nc2ccc(-c3ccc4c(c3)OCO4)cc12)N1CCC[C@H]1CN1CCCC1 . Reported pIC50?
**Result** > 6.00

###

Consider the following compounds and their measured IC50 readings.
Target: ZAP-70 (Homo sapiens)
Assay: DELFIA assay (ZAP-70 kinase, phosphorylation of biotinylated poly(glu,tyr))
Format: biochemical
Settings: ZAP-70 DELFIA, class symbols; read-out: Activity (IC50 in vitro)
Experimental: Before initiation of kinase reactions, compounds were pre-incubated with ZAP-70. […] The amount of phosphate transferred to biotinylated poly(glu,tyr) was measured using the Dissociation Enhanced Lanthanide Fluorescence Immuno-assay (DELFIA) from Perkin Elmer according to manufacturers protocol. […] Free antibody was removed with six washes, Europium was dissociated from the antibody, and Europium fluorescence was measured at using an excitation wavelength of 340 nm and an emission wavelength of 615 nm.

| COMPOUND | ENDPOINT_NAME | EXPERIMENTAL_RESULT |
| --- | --- | --- |
| CC(Nc1cc(C(=O)N2CCC[C@H]2CN2CCCC2)c2cc(-c3ccc4c(c3)OCO4)ccc2n1)c1ccc(F)cc1 (stereo partly drawn) | IC50 | < 1 µM |
| O=C(c1cc(NCc2ccc(C(F)(F)F)cc2)nc2ccc(-c3ccc4c(c3)OCO4)cc12)N1CC2CC2[C@H]1CN1CCCC1 (stereo partly drawn) | IC50 | 1 to 10 µM |
| CN(C)CCCN1CCN(c2ccc(Cc3cc(C(=O)N4CCCC4CN4CCCC4)c4cc(-c5ccc6c(c5)OCO6)ccc4n3)cc2)CC1 (stereo not drawn) | IC50 | < 1 µM |
| O=C(c1cc(NC2CCCC2)nc2ccc(-c3ccc4c(c3)OCO4)cc12)N1CCC[C@H]1CN1CCCC1 | IC50 | > 10 µM |
| C[C@@H](c1ccccc1)N(C)c1cc(C(=O)N2CCC[C@H]2CN2CCCC2)c2cc(-c3ccc(C#N)cc3)ccc2n1 | IC50 | > 10 µM |

**Query** Entry NC(=O)c1cc(C(=O)N2CCC[C@H]2CN2CCCC2)c2cc(-c3ccc4c(c3)OCO4)ccc2n1 : reported IC50 = ?
**Result** > 10 µM

**Query** Repeat with COc1cccc([C@@H](C)Nc2cc(C(=O)N3CCC[C@H]3CN3CCCC3)c3cc(-c4ccc(C#N)cc4)ccc3n2)c1
**Result** > 10 µM

**Query** Now give it for O=C(c1cc(/C=C/c2ccccc2)nc(/C=C/c2ccccc2)c1)N1CCC[C@H]1CN1CCCC1 too.
**Result** 1 to 10 µM

**Query** Repeat with O=C(c1cc(NCc2ccc(C(F)(F)F)cc2)nc2ccc(-c3cncnc3)cc12)N1CCC[C@H]1CN1CCCC1
**Result** > 10 µM

**Query** Now this one: O=C(Nc1ccc2[nH]ncc2c1)c1cc(NCc2ccccc2)nc2ccc(-c3ccc4c(c3)OCO4)cc12
**Result** 1 to 10 µM

**Query** Now consider O=C(NCc1ccc(C(F)(F)F)cc1)c1cc(C(=O)N2CCC[C@H]2CN2CCCC2)c2cc(-c3ccc4c(c3)OCO4)ccc2n1 and answer again.
**Result** 1 to 10 µM

###

molecular target: ZAP-70 (Homo sapiens); experiment: DELFIA assay (ZAP-70 kinase, phosphorylation of biotinylated poly(glu,tyr)); assay type: biochemical; details: ZAP-70 DELFIA, class symbols; read-out: Activity (IC50 in vitro)
ENDPOINT_NAME: IC50

Example cases with answers are listed next.
| COMPOUND | ASSAYED_TARGET | IC50 |
| --- | --- | --- |
| CC(CNc1cc(C(=O)N2CCC[C@H]2CN2CCCC2)c2cc(-c3ccc4c(c3)OCO4)ccc2n1)c1ccccc1 (stereo partly drawn) [Compound 54] | ZAP-70 (Homo sapiens) | < 1 µM |
| CC(=O)NCCNc1cc(C(=O)N2CCC[C@H]2CN2CCCC2)c2cc(-c3ccc4c(c3)OCO4)ccc2n1 [Compound 71] | ZAP-70 (Homo sapiens) | > 10 µM |
| O=C(c1cc(Oc2ccccc2)nc2ccc(-c3ccc4c(c3)OCO4)cc12)N1CCC[C@H]1CN1CCCC1 [Compound 22] | ZAP-70 (Homo sapiens) | < 1 µM |
| N#Cc1csc2ccc(-c3ccc4nc(NCc5ccc(C(F)(F)F)cc5)cc(C(=O)N5CCC[C@H]5CN5CCCC5)c4c3)cc12 [Compound 351] | ZAP-70 (Homo sapiens) | < 1 µM |
| COc1cccc([C@H](C)Nc2cc(C(=O)N3CCC[C@H]3CN3CCCC3)c3cc(-c4ccc(C#N)cc4)ccc3n2)c1 [Compound 204] | ZAP-70 (Homo sapiens) | > 10 µM |
| N#Cc1ccc(-c2ccc3nc(CCc4ccc(Cl)cc4)cc(C(=O)N4CCC[C@H]4CN4CCCC4)c3c2)cc1 [Compound 390] | ZAP-70 (Homo sapiens) | > 10 µM |

**Query** Could you share which IC50 value was measured for CN(CCO)c1cc(C(=O)N2CCC[C@H]2CN2CCCC2)c2cc(-c3ccc4c(c3)OCO4)ccc2n1 [Compound 74] ?
**Result** 1 to 10 µM

**Query** O=C(Nc1cc(C(=O)N2CCC[C@H]2CN2CCCC2)c2cc(-c3ccc4c(c3)OCO4)ccc2n1)c1ccc(Cl)cc1 [Compound 386] , same question.
**Result** 1 to 10 µM

**Query** Same read-out for O=C(c1cc(NCc2ccccc2)nc2ccc(-c3ccc4c(c3)OCO4)cc12)N1CCC[C@H]1CN1CCCCC1 [Compound 82] ?
**Result** 1 to 10 µM

**Query** // query: O=C(c1cc(NCc2ccc(C(F)(F)F)cc2)nc2ccc(-c3ccc(F)c(F)c3)cc12)N1CCC[C@H]1CN1CCCC1 [Compound 344]
**Result** < 1 µM

**Query** Now consider N#Cc1ccc(-c2ccc3nc(NCc4ccc(F)cc4C(F)(F)F)cc(C(=O)N4CCC[C@H]4CN4CCCC4)c3c2)cc1 [Compound 239] .
**Result** > 10 µM
